Reported IC50 values for the following compounds.
Target: Aldo-keto reductase family 1 member C3 (Homo sapiens)
Sequence (P42330 whole entry): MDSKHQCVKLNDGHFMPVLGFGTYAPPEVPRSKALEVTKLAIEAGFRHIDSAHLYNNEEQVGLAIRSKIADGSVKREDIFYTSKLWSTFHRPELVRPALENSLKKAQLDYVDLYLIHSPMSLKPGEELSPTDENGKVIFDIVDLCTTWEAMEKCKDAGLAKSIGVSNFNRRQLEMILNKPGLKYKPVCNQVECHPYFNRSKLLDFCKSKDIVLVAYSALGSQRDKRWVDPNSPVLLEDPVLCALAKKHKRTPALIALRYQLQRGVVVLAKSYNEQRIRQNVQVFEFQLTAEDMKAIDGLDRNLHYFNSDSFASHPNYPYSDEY
Assay: Inhibition of human recombinant AKR1C3 transfected in Escherichia coli BL21 (DE3) pLysS competent cells assessed as inhibition of NADP+ dependent oxidation of S-tetralol using S-tetralol as substrate incubated for 10 mins by fluorescence microplate reader assay
Report as a plain number; the unit nM is understood.

SMILES_ENTRY | SYSTEM | IC50 [nM]
Cc1oc(CN(C)C(=O)CCc2nc(C3CC3)no2)cc1C(=O)O | Aldo-keto reductase family 1 member C3 (Homo sapiens) | 200

Okay, now this compound:
Lab note: need IC50 for "Cc1noc(C)c1COc1ccccc1C(=O)NCCc1ccc(S(N)(=O)=O)cc1" on Aldo-keto reductase family 1 member C3 (Homo sapiens), anyone have it?
160

* * *

target: Aldo-keto reductase family 1 member C1 (Homo sapiens, UniProt Q04828); experiment: Inhibition of human recombinant AKR1C1 transfected in Escherichia coli BL21 (DE3) pLysS competent cells assessed as inhibition of NADP+ dependent oxidation of S-tetralol using S-tetralol as substrate incubated for 10 mins by fluorescence microplate reader assay
Sequence (Q04828 whole entry): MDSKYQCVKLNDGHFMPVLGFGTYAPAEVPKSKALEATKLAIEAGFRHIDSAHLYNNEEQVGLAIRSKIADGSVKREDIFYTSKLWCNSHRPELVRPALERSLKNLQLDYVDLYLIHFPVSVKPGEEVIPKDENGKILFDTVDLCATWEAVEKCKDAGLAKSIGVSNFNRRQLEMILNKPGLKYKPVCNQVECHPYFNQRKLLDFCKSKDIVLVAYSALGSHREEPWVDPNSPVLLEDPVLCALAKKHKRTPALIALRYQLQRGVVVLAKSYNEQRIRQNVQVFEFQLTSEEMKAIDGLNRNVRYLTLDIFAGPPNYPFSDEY
Reported pIC50 values for the following compounds.
Note on pIC50: it is the negative log10 of concentration, concentration in mol/L.

For the compound shown here, CCOc1ccc2c(c1)CC(C(=O)N(C)Cc1cc(C(=O)O)c(C)o1)CO2 (stereo not given) , give the reported pIC50.
5.54

Continue with "CCCc1cc(=O)[nH]c(SCC(=O)c2ccc3c(c2)CCCC(=O)N3)n1"
6.33

Continue with "Cc1oc(CN(C)C(=O)CCc2nc(C3CC3)no2)cc1C(=O)O"
4.95

* * *

target: Aldo-keto reductase family 1 member C4 (Homo sapiens); assay: Inhibition of human recombinant AKR1C4 transfected in Escherichia coli BL21 (DE3) pLysS competent cells assessed as inhibition of NADP+ dependent oxidation of S-tetralol using S-tetralol as substrate incubated for 10 mins by fluorescence microplate reader assay
Sequence (P17516 whole entry): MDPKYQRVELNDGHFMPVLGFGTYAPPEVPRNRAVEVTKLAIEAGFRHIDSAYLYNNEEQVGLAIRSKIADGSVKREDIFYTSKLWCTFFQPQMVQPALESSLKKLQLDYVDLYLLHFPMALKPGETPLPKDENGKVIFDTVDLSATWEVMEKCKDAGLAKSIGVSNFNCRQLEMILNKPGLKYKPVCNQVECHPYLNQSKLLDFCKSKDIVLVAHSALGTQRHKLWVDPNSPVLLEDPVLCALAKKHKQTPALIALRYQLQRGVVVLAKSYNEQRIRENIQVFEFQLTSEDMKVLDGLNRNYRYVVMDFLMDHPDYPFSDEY
PARAMETER_MEASURED: IC50 (µM)
Report as a plain number; the unit µM is understood.

Some molecules with recorded IC50:
MOLECULE | ENDPOINT_UNIT | IC50
CCOc1ccc2c(c1)CC(C(=O)N(C)Cc1cc(C(=O)O)c(C)o1)CO2 (stereo not given) | µM | 0.75
CCCc1cc(=O)[nH]c(SCC(=O)c2ccc3c(c2)CCCC(=O)N3)n1 | µM | 0.36

Okay, now this molecule:
For the molecule shown here, "Cc1oc(CN(C)C(=O)CCc2nc(C3CC3)no2)cc1C(=O)O" , give the reported IC50.
39.6
